- Tested on: human breast cancer MCF7 cells
- ASSAY_INFO: Orthotopic transplantation tumor model of human breast cancer MCF7 cells
- Assay type: in vivo, BALB/c nude mice
- SETTINGS: after administration for 28 days
Friendly reminder: Mice tumor weight after experiment below 0.6 g is fulfilled, at or above is not fulfilled.

Record excerpt, results attached:
MOLECULE	ANSWER_LABEL
rLZ-8 (K16A/S18A/K41A/D45A): alanine mutant of rLZ-8 at K16, S18, K41 and D45 (protein) MSDTALIFRLAWDVKALAFDYTPNWGRGNPNNFIDTVTFPAVLTAKAYTYRVAVSGRNLGVKPSYAVESDGSQKVNFLEYNSGYGIADTNTIQVFVVDPDTNNDFIIAQWN	not fulfilled
rLZ-8 (S18A): alanine mutant of rLZ-8 at S18 (protein) MSDTALIFRLAWDVKKLAFDYTPNWGRGNPNNFIDTVTFPKVLTDKAYTYRVAVSGRNLGVKPSYAVESDGSQKVNFLEYNSGYGIADTNTIQVFVVDPDTNNDFIIAQWN	not fulfilled
rLZ-8 (D70K): rLZ-8 mutant after surface potential optimization, D70K (protein) MSDTALIFRLAWDVKKLSFDYTPNWGRGNPNNFIDTVTFPKVLTDKAYTYRVAVSGRNLGVKPSYAVESKGSQKVNFLEYNSGYGIADTNTIQVFVVDPDTNNDFIIAQWN	fulfilled
rLZ-8 (K16A/K41A): alanine mutant of rLZ-8 at K16 and K41 (protein) MSDTALIFRLAWDVKALSFDYTPNWGRGNPNNFIDTVTFPAVLTDKAYTYRVAVSGRNLGVKPSYAVESDGSQKVNFLEYNSGYGIADTNTIQVFVVDPDTNNDFIIAQWN	not fulfilled
rLZ-8 (L17K/D70K): rLZ-8 mutant after surface potential optimization, L17K and D70K (protein) MSDTALIFRLAWDVKKKSFDYTPNWGRGNPNNFIDTVTFPKVLTDKAYTYRVAVSGRNLGVKPSYAVESKGSQKVNFLEYNSGYGIADTNTIQVFVVDPDTNNDFIIAQWN	fulfilled
rLZ-8 (K46E): rLZ-8 mutant K46E (protein) MSDTALIFRLAWDVKKLSFDYTPNWGRGNPNNFIDTVTFPKVLTDEAYTYRVAVSGRNLGVKPSYAVESDGSQKVNFLEYNSGYGIADTNTIQVFVVDPDTNNDFIIAQWN	not fulfilled

Next molecule, please.
Q: I wonder whether rLZ-8 (L17K): rLZ-8 mutant after surface potential optimization, L17K (protein) MSDTALIFRLAWDVKKKSFDYTPNWGRGNPNNFIDTVTFPKVLTDKAYTYRVAVSGRNLGVKPSYAVESDGSQKVNFLEYNSGYGIADTNTIQVFVVDPDTNNDFIIAQWN has Mice tumor weight after experiment below 0.6 g. Can you tell?
A: not fulfilled
